Assay: Solubility / miscibility measurement (NMR method, internal standard)
Assay type: physicochemical
Conditions: organic solvent or mixture; in 0.1 M TEATFSI in acetonitrile; NMR method

COMPOUND: CC(CN1c2ccccc2Sc2ccccc21)[N+](C)(C)CCOCCOCC[N+](C)(C)C(C)CN1c2ccccc2Sc2ccccc21 (stereo not shown)
solubility [mM]: 1200
